Origin of measurements: paper PMC12392461

Tested on: MCF7 (ARE/MMP)
Details: MMP bioassay cytotoxicity; dosing range all; linear model
The following compounds are listed with their measured IC10, linear values.
Please give the numeric answer without any surrounding text.

Below, 5 compounds whose answers are already recorded.
>  <compound>
CC(c1ccc(O)cc1)c1ccc(O)cc1 [BPE, 4,4′-Ethylidenbisphenol]

>  <IC10, linear>
8.57E-05

$$$$
>  <compound>
CCC(C)(c1ccc(O)cc1)c1ccc(O)cc1 [BPB, 4,4'-(Butane-2,2-diyl)diphenol]

>  <IC10, linear>
3.05E-05

$$$$
>  <compound>
CC(C)c1cc(C(C)(C)c2ccc(O)c(C(C)C)c2)ccc1O [BPG]

>  <IC10, linear>
8.88E-06

$$$$
>  <compound>
C=CCOc1ccc(S(=O)(=O)c2ccc(O)cc2)cc1 [BPS-MAE, 4-[[4-(Allyloxy)phenyl]sulfonyl]phenol]

>  <IC10, linear>
1.02E-03

$$$$
>  <compound>
O=C(OCc1ccccc1)c1ccc(O)cc1 [BzPB, Benzyl 4-hydroxybenzoate]

>  <IC10, linear>
1.94E-04

$$$$

We next turn to a different compound, shown below.
So, Oc1ccc(Cc2ccc(O)cc2)cc1 [BPF, Bis(4-hydroxyphenyl)methane] ? Its IC10, linear was 5.00E-04

* * *

Tested on: MCF7 (ARE/MMP)
Conditions: Bioassay ARE; cytotoxicity; dosing range all
recordedEndpoint: IC10, linear transformed
Give your answer as a number; write no unit.

These solved cases illustrate the format of a correct answer.
>  <molecule>
CC(c1ccccc1)(c1ccc(O)cc1)c1ccc(O)cc1

>  <assaySystem>
MCF7 (ARE/MMP)

>  <recordedNumber>
3.14E-05

$$$$
>  <molecule>
Oc1ccc(Cc2ccc(O)cc2)cc1 [BPF, Bis(4-hydroxyphenyl)methane]

>  <assaySystem>
MCF7 (ARE/MMP)

>  <recordedNumber>
6.56E-04

$$$$
>  <molecule>
O=S(=O)(c1ccc(O)cc1)c1ccc(OCc2ccccc2)cc1 [BPS-MPE, 4-[4-(benzyloxy)benzenesulfonyl]phenol]

>  <assaySystem>
MCF7 (ARE/MMP)

>  <recordedNumber>
7.91E-05

$$$$

Recorded result, C=CCOc1ccc(S(=O)(=O)c2ccc(O)cc2)cc1 [BPS-MAE, 4-[[4-(Allyloxy)phenyl]sulfonyl]phenol] , IC10, linear transformed: 3.86E-04

* * *

Reported log(1/EC10) AhR values follow for various compounds
Molecular target: UniProt:P41738
Conditions: input of the ToxPi score, values up to 1.00
# answer = number (no unit)

>  <compound>
CCC(C)(c1ccc(O)cc1)c1ccc(O)cc1

>  <recordedNumber>
0.83

$$$$

Reported log(1/EC10) AhR for CC1(C)[C@H](O)C(C)(C)[C@H]1O was 0.30

Lab book: log(1/EC10) AhR of CC(C)(c1ccc(O)c(-c2ccccc2)c1)c1ccc(O)c(-c2ccccc2)c1 [BPPH, 2,2-Bis(2-hydroxy-5-biphenylyl)propane] noted as 0.99

What the record says about O=S(=O)(c1ccc(O)cc1)c1ccc(OCc2ccccc2)cc1 [BPS-MPE, 4-[4-(benzyloxy)benzenesulfonyl]phenol] : log(1/EC10) AhR is 0.91

* * *

Target: Aryl hydrocarbon receptor (Rattus norvegicus, UniProt P41738)
Sequence (P41738 10-853): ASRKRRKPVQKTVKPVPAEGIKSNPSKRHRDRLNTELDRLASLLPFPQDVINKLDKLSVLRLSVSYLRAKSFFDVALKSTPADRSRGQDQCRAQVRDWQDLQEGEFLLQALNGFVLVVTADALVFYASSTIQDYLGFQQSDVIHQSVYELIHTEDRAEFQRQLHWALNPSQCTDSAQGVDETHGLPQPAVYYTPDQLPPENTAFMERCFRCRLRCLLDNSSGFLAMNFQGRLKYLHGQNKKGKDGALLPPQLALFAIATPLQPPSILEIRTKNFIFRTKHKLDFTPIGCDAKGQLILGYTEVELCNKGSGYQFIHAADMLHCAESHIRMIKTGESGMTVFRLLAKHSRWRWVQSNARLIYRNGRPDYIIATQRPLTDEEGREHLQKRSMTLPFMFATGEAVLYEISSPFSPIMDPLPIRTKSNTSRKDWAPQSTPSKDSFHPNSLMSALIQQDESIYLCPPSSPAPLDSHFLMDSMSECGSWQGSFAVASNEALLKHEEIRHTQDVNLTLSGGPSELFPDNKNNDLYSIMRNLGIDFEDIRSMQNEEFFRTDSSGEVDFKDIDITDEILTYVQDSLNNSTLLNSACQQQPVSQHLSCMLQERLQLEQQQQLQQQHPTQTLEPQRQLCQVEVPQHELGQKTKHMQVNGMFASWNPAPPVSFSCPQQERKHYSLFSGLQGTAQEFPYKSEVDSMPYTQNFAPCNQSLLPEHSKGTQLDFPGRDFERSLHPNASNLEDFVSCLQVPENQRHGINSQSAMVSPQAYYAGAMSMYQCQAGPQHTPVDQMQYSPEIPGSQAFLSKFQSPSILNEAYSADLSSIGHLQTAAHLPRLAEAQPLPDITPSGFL
Text: All bioassay media components and the ERα-UAS-bla GripTite and PPARγ-UAS-bla cells were obtained from Thermo Fisher Scientific (Waltham, MA, USA). AREc32 reporter gene cells based on MCF7 were provided by C. Roland Wolf (Cancer Research UK); AhR CALUX cells (H4L7.5c2 derived from H4IIe) were provided by Michael Denison (UC Davis, USA); and SH-SY5Y cells were purchased from Sigma-Aldrich. […]
recordedEndpoint: EC10, AhR (M)

Consider the reported EC10, AhR (M) for these compounds:
>  <compound>
CC(C)(c1ccc(O)c(-c2ccccc2)c1)c1ccc(O)c(-c2ccccc2)c1 [BPPH, 2,2-Bis(2-hydroxy-5-biphenylyl)propane]

>  <EC10, AhR (M)>
9.54 × 10^–6 M

$$$$
>  <compound>
CC(c1ccc(O)cc1)c1ccc(O)cc1 [BPE, 4,4′-Ethylidenbisphenol]

>  <EC10, AhR (M)>
6.19 × 10^–5 M

$$$$

The compound listed as Cc1ccc(S(=O)(=O)NC(=O)Nc2cccc(OS(=O)(=O)c3ccc(C)cc3)c2)cc1 [Pergafast] shows EC10, AhR (M) equal to 2.29 × 10^–5 M

The value of EC10, AhR (M) measured for the compound CC(C)(c1ccc(O)cc1)c1ccc(O)cc1 [BPA, 4,4'-(Propane-2,2-diyl)diphenol, reference compound] turned out to be 2.64 × 10^–4 M

// COC(=O)C(c1ccc(O)cc1)c1ccc(O)cc1 [Bz, Methyl bis(4-hydroxyphenyl)acetate] : EC10, AhR (M) value = 6.20 × 10^–5 M

* * *

System: H4IIe (AhR CALUX)
Conditions: against baseline cytotoxicity
In this section, each of the compounds is paired with its reported Toxic ratio (TR) TRAhR.
Field format: numeric only.

Please review the entries below; each comes with its answer.
>  <compound>
O=C(OCc1ccccc1)c1ccc(O)cc1 [BzPB, Benzyl 4-hydroxybenzoate]

>  <Toxic ratio (TR) TRAhR>
0.19

$$$$
>  <compound>
CC1(C)[C@H](O)C(C)(C)[C@H]1O [t-TMCD]

>  <Toxic ratio (TR) TRAhR>
0.11

$$$$
>  <compound>
CC(C)c1cc(C(C)(C)c2ccc(O)c(C(C)C)c2)ccc1O [BPG]

>  <Toxic ratio (TR) TRAhR>
0.25

$$$$

For CC(C)Oc1ccc(S(=O)(=O)c2ccc(O)cc2)cc1 [D8, 4-((4-Isopropoxyphenyl)sulfonyl)phenol] the compound record lists Toxic ratio (TR) TRAhR as 2.94

So for COC(=O)C(c1ccc(O)cc1)c1ccc(O)cc1 [Bz, Methyl bis(4-hydroxyphenyl)acetate] , the logged Toxic ratio (TR) TRAhR turned out to be 3.18

According to the records, this compound O=S(=O)(c1ccc(O)cc1)c1ccc(OCc2ccccc2)cc1 [BPS-MPE, 4-[4-(benzyloxy)benzenesulfonyl]phenol] displays Toxic ratio (TR) TRAhR of 0.68

* * *

Assay: Acidity constant (pKa) measurement, Sirius T3 UV-metric, and speciation at pH 7.4
Details: from experimental pKa
recordedEndpoint: Neutral form (pH = 7.40) (%)
Please state the figure in %; there is no need to write the unit.

Sample answers from the record:
>  <compound>
O=S(=O)(c1ccc(O)cc1)c1ccccc1O [2,4-BPS, 2,4'-Dihydroxydiphenyl sulfone]

>  <recordedEndpoint>
Neutral form (pH = 7.40)

>  <recordedNumber>
43

$$$$
>  <compound>
Cc1ccc(S(=O)(=O)NC(=O)Nc2cccc(OS(=O)(=O)c3ccc(C)cc3)c2)cc1 [Pergafast]

>  <recordedEndpoint>
Neutral form (pH = 7.40)

>  <recordedNumber>
0.089

$$$$
>  <compound>
CC(C)c1cc(C(C)(C)c2ccc(O)c(C(C)C)c2)ccc1O [BPG]

>  <recordedEndpoint>
Neutral form (pH = 7.40)

>  <recordedNumber>
100

$$$$
>  <compound>
CC(C)(c1cc(Br)c(O)c(Br)c1)c1cc(Br)c(O)c(Br)c1 [TBBPA, 3,3',5,5'-Tetrabromobisphenol A]

>  <recordedEndpoint>
Neutral form (pH = 7.40)

>  <recordedNumber>
4.58

$$$$

// moving on: another record for Neutral form (pH = 7.40)
For reference, reported Neutral form (pH = 7.40) for CC(c1ccc(O)cc1)c1ccc(O)cc1 [BPE, 4,4′-Ethylidenbisphenol] stands at 98
